B1: F1*; the commonest letter at each place (parent)
chain: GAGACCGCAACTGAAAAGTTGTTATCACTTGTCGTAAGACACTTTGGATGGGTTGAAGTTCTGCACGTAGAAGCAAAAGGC

Variants of: B1
Test protocol: fraction ligated after 30 min (ligated reads / total reads); higher = more ligase activity
Assay context: with F1*sub RNA substrate (template-directed ligation), 42 °C
Quick rule: fraction ligated of at least 0.8 means 1, below that means 0.

T35A A48C
0
G31A T35G
0
C26G G47T
0
T44A T49C
0
A41T
1

Q: Is fraction ligated for G46T T49C at or above 0.8?
Ans: 0

Q: Is fraction ligated for A36T G38A at or above 0.8?
Ans: 1

Q: Is fraction ligated for A24T T49C at or above 0.8?
Ans: 0

Q: Is fraction ligated for C33G A56T at or above 0.8?
Ans: 1

Q: Is fraction ligated for T30C C33T at or above 0.8?
Ans: 1

Q: Is fraction ligated for "C33A" at or above 0.8?
Ans: 1

Q: Is fraction ligated for A37G A41T at or above 0.8?
Ans: 1

Q: Is fraction ligated for G38A C42A at or above 0.8?
Ans: 1

Q: Is fraction ligated for G38C T43A at or above 0.8?
Ans: 1

Q: Is fraction ligated for C33A G50A at or above 0.8?
Ans: 0

Q: Is fraction ligated for T32C G46T at or above 0.8?
Ans: 0

Q: Is fraction ligated for T29C A48G at or above 0.8?
Ans: 0

Q: Is fraction ligated for G31A C33A at or above 0.8?
Ans: 1

Q: Is fraction ligated for T32C C33T at or above 0.8?
Ans: 1

Q: Is fraction ligated for C26T G34C at or above 0.8?
Ans: 1

Q: Is fraction ligated for A41C T45C at or above 0.8?
Ans: 0

Q: Is fraction ligated for A36G A41T at or above 0.8?
Ans: 1

Q: Is fraction ligated for "T29A" at or above 0.8?
Ans: 1

Q: Is fraction ligated for T29A T32C at or above 0.8?
Ans: 0
